Reference source for all entries: the supplement of paper PMC9170038

Kindly state apparent KD of K4 kissing-loop reporter for each of the entries shown.
- Test system: K4 kissing-loop RNA reporter
- ASSAY NAME: apparent KD of K4 kissing-loop reporter; higher = weaker reporter binding
- TEST PARAMETERS: Eterna round: R107; input ligand: arginine 13.2 mM
Give bare numbers, in nM.

// worked examples, apparent KD of K4 kissing-loop reporter included
AGACUACCACACUGUCAAUAGACAGUGGACUAGGAUAUGCUGAUAAGCAGAAGGAGUGAUGUUCCAAGGUAGUCAAUAAAAUAAU [FmnAX 13 G28+A66] ... 257
UUUAUUAAGACGGCCGCCACUGAUUCAUAGUGAUGUUAUGAUAUAAUUUUAGUGAUUUUGAUUAGCAGGACCGGGUCAAUUAUUA [JR_ExcTryptoB_Sub016] ... 179
CGCGCGCGUUGAGAGGUGCGCGCGAAUGAUACCAGUAUAUAAGAAUACCCUUGGCAGCAUAAGAAAGAUAUAGUGAUGUUGUAUA [SSTheophA.F] ... 130

State recorded apparent KD of K4 kissing-loop reporter for all listed sequences.
1. ACGAAGGAUGGAAGGAGCGCUCGUCAGUCCUGCGAGUGAUGUUCGUGGGUAAAUAUUCGCGAGCAGGUAGGUCGCCAUCUUGAAC [Veticeen]
2. UCUGCAAAGUCGGCCGCCACUCCGGGCCCUAUAAAUGGGCGCAGUGAUGUUGCGGCUAGGCCUCUGAGGACCGGGACUUUAUAGA [Anarisgema]
3. UUGUAAAAGUCGGCCGCCACUCCGGGCCCUAUAAAUGGGCGCAGUGAUGUUGCGGCUAGGCCUCUGAGGACCGGGACUUUAUAGC [Xeismaarbe]
4. GCCGUACGCAUGGAUACCAGUCUUAGAGUGAUGUUCUAUACGAUUGCGCCUGGAUCAAUGGACCCUUGGCAGCCAUGCGUACGGC
5. UGAUAGGACAGAAGGAGCGGAAGUGAUGUUUCCAAAAGGGAAGGUCGACAAAGUCGACCCUUCCAGGUAGGUCGCUGUCCUAUCU [ArgBX 9 #Palindromic #SwitchBubble #StaticStem]

*A*
[104, 45.8, 85.1, 112, 72.5]

State recorded apparent KD of K4 kissing-loop reporter for all listed sequences.
1. UUUGUAUAGGGAAGGAGCGUGAAUGAUAAUGAAUAUAGUGAUGUUAUAUAGAAGAAAGAAUCACAGGUAGGUCGCCCGGAGGAGG [SSArgB.I]
2. UUUGGUUUCUCGGCCGCCACUCGUUGGUUAUGGGCUUCAGGGAUAUAGUGAUGUUAUGUAUAGAAGAGGACCGGGAGAAGGUUUG [ExTryptoB.Dt]
3. GGAUUGCCAGUGAUGUUGGCAUAAUCUGAAGGAGCGCGUGAAAACGCAGGUAGGUCGCAGAACCUUGCCAACUGAUCGAAAGAUC [Ex Arginine A K4 30]
4. UACAAUUUGGCGGCCGCCACUGACCAUAGCCUUCGAUGGCCAGUGAUGUUGGCCUCUGGCUCUAACAGGACCGGGCCAAAUUAUG [Maeste]
5. UAGACCAGUGAUGUUGGUUCCAAGACGGAUACCAGACUGGCAGAAGUCCCUUGGCAGCUGUAGACCUUGUGAGCUACAAGGUCGG [Theo A SS t2]
6. UACUGGGCGAGUGAUGUUCGCUCACGUGAUACCAGUGCCAUCCAACACCCUUGGCAGCACGCGGGCAGUGAUGUUGUCCUUGUAU [Exclusion Theophylline A GF 5]

*A*
234
343
165
216
184
112

State recorded apparent KD of K4 kissing-loop reporter for all listed sequences.
1. AGAUUCGACACGGCCGCCACUCGUGGUGGAUUACCUAGUGUCGAAGUUGAGUGAUGUUCAACUACGAGGACCGGGUGUUGAGUCU [KL-XTryp-B7 #analogue]
2. UCCUGCAAUCGUCCACGAAAGUGGAUUGAUACCAGAGUCGAAAGACUCCCUUGGCAGCGAGUGAUGUUCGAAGCAGGUAAAUAAA
3. AGAUUCUUUUUUUUAUUUAAGUUUUCAGAAGGAGCGUGGUAGUACACAGGUAGGUCGCUGAAUUUUGGGCUAGUGAUGUUAGUUA [whbob_SS_Arginine_A_sa115]
4. AAACAUCACUGGGAGUGAUGUUCUCAGUGACGAGGACCGGUACGGCCGCCACUCGCGAGAGAUAUAAAUGAGUAAUGACAUCAUU [Excl Tryptophan A V2]
5. AGCGAUGUUUUCUCUAGGAGUGAUGUUUUUCGAGGACCGGUACGGCCGCCACUCGGACGACGAGUGUGGUAGUGGGCUGUUGACU [ffmullin]
6. AGGCACGAGCAAGGAUAUCGAGUAGAGUGAUGUUCUGCCUGGGUUGGCGCGUAAGGGCCUUCCCAGCGAGAAGGUGCUCGUGCCU [#2 Same State - FMN A Attempt #12 (HarryS)]
7. GGGUGGUAGGCGGCCGCCACUCUGAGCACCCACUGAGUGAUGUUCGUGGCGUAAGCCUGUUCAUAGAGGACCGGGUUUGUUGUUC [Exclusion Tryptophan B GF 16]
8. CGAGUGAUGUUCGUUUUUUACUCUGUUUGACAGGAUAUGCGGAAACGCAGAAGGGUCACCUUUGAGUUAAACGGAGUUAUUUUUU [Ex FMN A 20]

*A*
1. 161
2. 365
3. 188
4. 236
5. 296
6. 681
7. 252
8. 296

State recorded apparent KD of K4 kissing-loop reporter for all listed sequences.
1. GCCGUAGAUUGAAGGAGCGGGAUAGAGAAAGUGAUGUUUUCUCUUUGACGGCGUCCUCGAUCCCAGGUAGGUCGCAAUCUACGGC
2. AGGUCCGAGCCCGUAAGGGCUCGGACCUGUUAGGAUAUGACGUUAUUCAGAAGGGAUGGGUGGAGUGAUGUUCCACCCGCAAGGG [#2 Same State - FMN A Attempt #10 (HarryS)]

*A*
1. 75.2
2. 102

###

- System: MS2 coat protein
- ASSAY NAME: apparent KD of MS2 coat protein; designed switch direction (-1 OFF switch, 1 ON switch): -1; higher = weaker reporter binding
- TEST PARAMETERS: Eterna round: R95; input ligand: none
// label = yes (1) if apparent KD of MS2 coat protein is not less than 30 nM, otherwise no (0)

*Q* Quick check, apparent KD of MS2 coat protein >= 30 nM? ACAAGCUUUUUGUUCGUCUUAUAAUAAUAAAUAAAGAUAACAUGAGGAUCACCCAUGUAACAAAGACGGACUCAUGU [Sesor Array 18 - Jieux - Sensor v3, turn-off variant 2] (puzzle: Sensor v3, turn-off variant 2)
*A* no (0)

*Q* Quick check, apparent KD of MS2 coat protein >= 30 nM? AUUAAAAUAUAGGAUAUCGAAUAUAUUAUUUAACGAGAAGGAUGAACAUGAGGAUCACCCAUGUGGUAUCAUGG [Mat - Exclusion 6 - JL Mod - D36] (puzzle: Exclusion 6)
*A* yes (1)

*Q* Quick check, apparent KD of MS2 coat protein >= 30 nM? GAGAAGUGAGGAUAUGCGAUAAGGAUGAAAGGAAGGAAUGAGUAGAAGGCACAUGAGGAUCACCCAUGUAGAGU [JR_Exclu4_Sub080] (puzzle: Exclusion 4)
*A* no (0)

*Q* Quick check, apparent KD of MS2 coat protein >= 30 nM? GAUGCUUCGGCAUCUACAAGCUUUUUGCUCGUCUUAUUAACAUGAGGAUCACCCAUGUUAAUGAGACCUCAUGUAUU [Sensor v3 - turn-off variant 2 - 7] (puzzle: Sensor v3, turn-off variant 2)
*A* no (0)

*Q* Quick check, apparent KD of MS2 coat protein >= 30 nM? CUGGUCCGAGGAUAUAUUAAGUGAUACAUGAGGAUCACCCAUGUUAUUUGAUGGAUAUUAAUAGAAGGCGGACUAG [Mat - Exclusion 5 - JL mod - D75] (puzzle: Exclusion 5)
*A* no (0)

*Q* Quick check, apparent KD of MS2 coat protein >= 30 nM? AAUAAACAUGAGGAUCACCCAUGUGAGGAUAUCCAAAUAAAUAAUAAAAUAAAUAAAAGGAGAAGGCACAAUAA [JMF most obvious solution 2] (puzzle: Exclusion 1)
*A* yes (1)

###

- Tested on: K4 kissing-loop RNA reporter;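 note: bound reporter read as fluorescence of individual clusters on recovered sequencing chips by microscopy, with normalized cluster intensities fitted with a binding model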
- ASSAY NAME: apparent KD of K4 kissing-loop reporter; higher = weaker reporter binding
- TEST PARAMETERS: Eterna round: R107; input ligand: theophylline 20 uM
Kindly state apparent KD of K4 kissing-loop reporter for each of the entries shown.
Answers are plain numbers, in nM.

// worked examples, apparent KD of K4 kissing-loop reporter included
ACGGGCGGCUGAAGGAGCGGGCGGGCCCGAGUGAUGUUCGGGUGGGCCGUGAGGUCCGGAGCCCAGGUAGGUCGCGGUUCCGCCU [#2 Same State - Arginine B Attempt #14 (HarryS)] ... 197
GUAGACGUACCUUCAGUGAUGUUGAAGGAUACCAGAUGUUACCACAUCCCUUGGCAGCCUUGGGAUAACAGUGAGUCGGAAUAUG [Uslediti] ... 166
AGAGUUAUGCGAGGAUAUGCGGUUAGUACUCAAAGAGUACUAACGGCAGAGUGAUGUUCUGUGAAAGCAGAAGGUGCAUAACUCA [Omei KL FMN B SS B v9] ... 327
UUUGUAUCGGGAAGGAGCGUGAAUGAUAAUGGAUAUAGUGAUGUUAUAUAUAAGAACGAAUCGCAGGUAGGUCGCCCGGAUGACU [SSArgB.Q] ... 400
GUUACGCAUGGAAGGAGCGCAUGCUCAACUAUAAGCUCAGUGAUGUUGAGCAUUUUUUUUUUGCAGGUAGGUCGCCAUGUGUAAC [Ex Arginine B K4 29] ... 438
UGAUAGGACAGAAGGAGCGGUAGUGAUGUUACCAAAAGGAUAAGGUGUCAAAAGACACCCUGCCAGGUAGGUCGCUGUCCUAUCU ... 98.8
UAAUUUAUGUCUUUAAUUUAAUAAUCAGAUACCAGUGAUUUAUGACACCCUUGGCAGCUGUAUUGAGUGAUGUUCUUAUACUUAA [JR_Nu_ExcTheophyA_Sub021] ... 212
AAUAUCUAGUAUAUAUUUUAUAAAACAGAUACCAGUGAUUAUAUACACCCUUGGCAGCUGGACGAGUGAUGUUCGUAUAUAUUAA [JR_SSTheophyA_Sub008] ... 244
AGACCACAAAGUGGUCAGUGUUCGCUGCAGCGAGGACCGGUACGGCCGCCACUCGCGAGUGAUGUUCGCGAGAGCAGCGAACACA [Omei KL Tryp A Exc A v6] ... 87.3
GCAUGCAUGGCAGGAUAUAAUCUGGAGUGAUGUUCCUUUAACCUUUCGAACGGCGAGCCAGGUUGAUUAGAAGGGCCAUGCAUGC ... 628

State recorded apparent KD of K4 kissing-loop reporter for all listed sequences.
1. CCAUCGCUAUUCGAUACCAGUCUUUUUUAUUUAUAAAAUCUGCAAAGGAGUGAUGUUCCAGACCCUUGGCAGCGAAUAGUGAUGG [Theophylline B K4 3]
2. UGGGAUGGUUCGGCCGCCACUAUGGUGCAGUGAUGUUGCAUCGUAGUAAAUCAUUCCAUUUACCGUAGGACCGGGAACCUUACGC [Mavelege]

*A*
1: 570; 2: 83.4
